Entry source: ChEMBL document CHEMBL1201862

# Tested on: LXFL 529
# METHOD: NCI tumour cell line growth inhibition, 48 h
Activity calls are given as the source filed them. Cut-off read from the data, not from the text of the source: active = GI50 up to about 1.1 µM and inactive = higher.
VALUE_TYPE: GI50

Ask | Field request: GI50 | item: O=C(Nc1ccccc1)Oc1ccccc1C1CCCCC1
Reply | 22.5 µM (inactive)

Ask | What measured GI50 goes with COc1cc(C=O)c(-c2cc3c(cc2C=O)OCO3)c(OC)c1OC ?
Reply | 78 µM (inactive)

Ask | Value lookup for GI50; key = CCC12CC[C@H](C#N)N3CCc4c(n(c5ccccc45)C(=O)C1)C32 (some centres undefined)
Reply | 16.6 µM (inactive)

Ask | Recorded GI50 for O=c1c2ccccc2nc(-c2cccc(Cl)c2)n1NCC1(O)OCC(O)C(O)C1O (centres undefined) , please?
Reply | 93.1 µM (inactive)

====

# System: SK-MEL-5
# METHOD: NCI tumour cell line growth inhibition, 48 h
Active and inactive are the calls of the source. No stated cut-off is given here; in the data, active = GI50 up to about 1.1 µM and inactive = higher.
Output constraint: value belongs to y (active), n (inactive)

Ask | Recorded test call requested for N#Cc1nsnc1-c1nc(-c2nsnc2C#N)nc(-c2nsnc2C#N)n1
Reply | n

Ask | For this compound, state the assay outcome: COc1cc2c(cc1OC)C1(COc3cc(O)c(O)c(O)c3C1=O)C2 (configuration not stated)
Reply | n

Ask | Dear all, I need the recorded test outcome for CCCCCCCCCCC(=O)CCCCCCC(=O)O , thank you.
Reply | n

Ask | Field: outcome | Entry: CC(C)(Cl)C(Br)CC/C(=C/CCl)CBr.CC(C)(Cl)C(Br)CC/C(=C\CCl)CBr (configuration not stated)
Reply | n

Ask | Answer briefly: the call reported for CC1=CC(=O)CC2(C)CC[C@@H]3C[C@]12OC3(C)C (some centres not stated) in this assay.
Reply | n

Ask | Name the outcome recorded for COc1cc2cc3c4cc(OC)c(OC)cc4cc[n+]3c(C)c2cc1OC.O=C([O-])CS(=O)(=O)O in the assay.
Reply | n

Ask | How did this test come out for CCOc1ccc(C2Oc3c(cccc3OC)C=C2[N+](=O)[O-])cc1OCC (configuration not stated) ?
Reply | n

Ask | # lookup: test call for CC1(Br)S(=O)(=O)OCCOS1(=O)=O
Reply | n

Ask | # lookup: test call for COC(=O)N1C[C@@]2(C=CC3(CC2)OCCO3)c2ccccc21
Reply | n

Ask | Please share the test call associated with O=C(c1ccsc1)c1cc2c(s1)C(=O)c1ccsc1C2=O .
Reply | y

Ask | Outcome? CNC(Cc1ccccc1)c1cccc(OC)c1O (configuration not stated)
Reply | n

Ask | Dear all, I need the recorded test outcome for O=C1OC(=O)C23CSCC12C1C=CC3O1 (configuration not stated) , thank you.
Reply | n

Ask | Hi, sorry to bother you, what did the test record for O=c1cccc(Cl)[nH]1 ?
Reply | n

Ask | Per the assay record, what outcome was assigned to C=C1C(=O)O[C@@H]2/C=C(\C)CC/C=C(/COC(C)=O)C[C@@H](OC(C)=O)[C@@H]12 ?
Reply | n

Ask | Test call, this compound: O=C1C(Cl)C(c2cc(Br)cc(Br)c2O)N1n1cnc2ccccc2c1=O (configuration not stated)
Reply | n

Ask | What call does the record list for C[C@H](NS(=O)(=O)c1ccc(NC(=O)c2ccccc2)cc1)C(=O)O ?
Reply | n

Ask | Hi, do you know how COc1ccc2c(c1)C(=O)C1CC(=O)CCC21 (configuration not stated) came out in this test?
Reply | n
